Test system: NCI-H226 lung
experiment-notes: NCI-60 one-dose screen, 48 h (100 = growth as untreated, 0 = no growth, -100 = all killed)
conditions: 10 µM unless noted
Compounds without any hit were thinned out: in the full panel of roughly 83,000, 20% have a hit. Calls of active or inactive are those of the source. The calls were made as follows: active = growth percent below 10; inactive = the rest.
Quick list: growth per entry.

[
  {
    "query-smiles": "N/C(=N\\c1nc2ccccc2s1)NC(=O)Nc1ccccc1Cl",
    "growth": "35.3% (inactive)"
  },
  {
    "query-smiles": "CC(C)N(Cc1ccccc1)c1c(S)ssc1=S",
    "growth": "14.2% (inactive)"
  },
  {
    "query-smiles": "O=[N+]([O-])c1ccc2[nH]cc(-c3c4ccccc4cc4[nH]c5ccc([N+](=O)[O-])cc5c34)c2c1",
    "growth": "39.5% (inactive)"
  },
  {
    "query-smiles": "c1ccc(Nc2ccc(Nc3nc(-c4ccccc4)nc4ccccc34)cc2)cc1",
    "growth": "81.2% (inactive)"
  },
  {
    "query-smiles": "O=C(O)C1CCN(S(=O)(=O)c2ccc(-c3ccccc3)cc2)CC1",
    "growth": "90.6% (inactive)"
  },
  {
    "query-smiles": "CSc1nc(N)c2c(n1)N(C)C=NS2(=O)=O",
    "growth": "101% (inactive)"
  },
  {
    "query-smiles": "O=C(COc1cccc(/C=C2\\Cc3ccccc3C2=O)c1)c1ccc(Cl)cc1",
    "growth": "105% (inactive)"
  },
  {
    "query-smiles": "Cc1ccccc1NC(=O)N/C(N)=N/c1nc2ccccc2s1",
    "growth": "21% (inactive)"
  },
  {
    "query-smiles": "CCCCNCCCN(CCCC)CCCNCCCC",
    "growth": "97.3% (inactive)"
  },
  {
    "query-smiles": "CCOc1cc(/C=C/C(=O)C(C(=O)/C=C/c2ccc(OC(=O)CNc3nc4ccccc4[nH]3)c(OCC)c2)C(=O)CNc2nc3ccccc3[nH]2)ccc1OC(=O)CNc1nc2ccccc2[nH]1",
    "growth": "-10.9% (active)"
  }
]

---

Tested on: RPMI-8226 leukemia
experiment-notes: NCI-60 one-dose screen, 48 h
conditions: 10 µM unless noted
Compounds without any hit were thinned out: in the full panel of roughly 83,000, 20% have a hit. Activity calls are given as the source filed them. Rule for the calls: active = growth percent below 10; inactive = the rest.
Labels: class 1 for active, class 0 for inactive

[
  {
    "compound": "O=C(Nc1ccccc1)P(=O)(O)c1ccccc1",
    "assayed-target": "RPMI-8226 leukemia",
    "answer-label": "class 0"
  },
  {
    "compound": "COP(=O)(OC)C(c1ccccc1)(c1ccccc1)c1ccccc1",
    "assayed-target": "RPMI-8226 leukemia",
    "answer-label": "class 0"
  },
  {
    "compound": "COc1cc(C2CC(C3C(=O)N(C)C(=O)N(C)C3=O)=NN2C=O)cc(OC)c1OC (stereo unspecified)",
    "assayed-target": "RPMI-8226 leukemia",
    "answer-label": "class 0"
  },
  {
    "compound": "COc1ccc2cc(C3=CC(=O)CCC3)ccc2c1",
    "assayed-target": "RPMI-8226 leukemia",
    "answer-label": "class 0"
  },
  {
    "compound": "CC(C)OP(=O)(OC(C)C)c1ncc(-c2ccc(C(F)(F)F)cc2)c(NC2CCCCCC2)n1",
    "assayed-target": "RPMI-8226 leukemia",
    "answer-label": "class 1"
  },
  {
    "compound": "COc1cccc(CCN2C(=O)CCC3=C2CCC3=O)c1",
    "assayed-target": "RPMI-8226 leukemia",
    "answer-label": "class 0"
  }
]
